# Ki listing for each entry below
Biological target: human GABAA α2β2γ1 receptor (Homo sapiens (Human), UniProt P47869+Q8N1C3)
Experiment: Radioligand binding assay, competition for [3H]RO7239181, γ1-containing GABAA subtypes

Example results:
> print(dat)
                            chemical.string                               measured.on  value.reported
1  Cc1nnc2n1-c1sc3c(c1C(c1c(F)cccc1F)=NC2)C[C@@H](C#N)C3  human GABAA α2β2γ1 receptor (Homo sapiens (Human), UniProt P47869+Q8N1C3)         42.7 nM
2  Cc1nnc2n1-c1sc3c(c1C(c1c(F)cccc1F)=N[C@H]2C)C[C@@H](C(F)(F)F)C3  human GABAA α2β2γ1 receptor (Homo sapiens (Human), UniProt P47869+Q8N1C3)         16.2 nM

Then there is this molecule:
What measured Ki goes with Cc1nc2n(n1)-c1sc3c(c1C(c1c(F)cccc1F)=N[C@H]2C)C[C@@H](C(F)F)C3 ?
2.3 nM

---

Molecular target: h-GABA-A α2β2γ1 receptor expressed in Xenopus laevis oocytes (Homo sapiens (Human), UniProt P47869+Q8N1C3)
Assay: Two-electrode voltage clamp electrophysiology in Xenopus oocytes expressing GABAA receptors
Assay type: cell-based
Settings: % modulation of GABA EC20 = 100*(Fold increase-1), compound at 30-fold Ki α2β2γ1
Could you mark each record rule met if its Efficacy (GABA)% falls strictly under 50%, and rule not met if it equals or exceeds it?

Worked set:
> print(dat)
                            chemical.string         group
1  Cc1cnc2n1-c1sc3c(c1C(c1c(F)cccc1F)=N[C@H]2C)C[C@@H](C(F)F)C3  rule not met
2  Cc1nc2n(n1)-c1sc3c(c1C(c1c(F)cccc1F)=N[C@H]2C)C[C@H](C(F)F)C3      rule met
3  Fc1cccc(F)c1C1=NCc2nnc(C3CC3)n2-c2sc3c(c21)C[C@@H](C(F)F)C3  rule not met
4  Cc1nc2n(n1)-c1sc3c(c1C(c1c(F)cccc1F)=N[C@H]2C)C[C@@H](C(F)F)C3      rule met
5  Fc1cccc(Cl)c1C1=NCc2nnc(C3CC3)n2-c2sc3c(c21)C[C@@H](C(F)F)C3  rule not met

Bench note: check whether Cc1nnc2n1-c1sc3c(c1C(c1c(F)cccc1F)=N[C@H]2C)C[C@@H](C)C3 shows Efficacy (GABA)% below 50%
rule met

Also, Cc1nnc2n1-c1sc3c(c1C(c1c(F)cccc1F)=NC2)C[C@@H](C)C3 please.
rule not met

Item: C[C@@H]1N=C(c2c(F)cccc2F)c2c(sc3c2C[C@@H](C(F)F)C3)-n2nc(C(=O)NCCO)nc21
rule not met

Request: C[C@@H]1N=C(c2c(F)cccc2F)c2c(sc3c2C[C@@H](C(F)F)C3)-n2c(C3CC3)nnc21
rule met

Now consider Cc1nnc2n1-c1sc3c(c1C(c1c(F)cccc1Cl)=NC2)C[C@@H](C#N)C3 .
rule not met

Okay, and Fc1cccc(F)c1C1=NCc2nnc(-c3cccnn3)n2-c2sc3c(c21)C[C@@H](C(F)F)C3 ?
rule met

And C[C@@H]1N=C(c2c(F)cccc2F)c2c(sc3c2C[C@@H](C(F)F)C3)-n2nc(C(=O)N3CCS(=O)(=O)CC3)nc21 ?
rule met

How about Cc1nnc2n1-c1sc3c(c1C(c1c(F)cccc1Cl)=N[C@H]2C)C[C@@H](C(F)F)C3 ?
rule met

Try Cc1nnc2n1-c1sc3c(c1C(c1c(F)cccc1F)=NC2)C[C@@H](C(F)F)C3 next.
rule not met

How about this compound: C[C@@H]1N=C(c2c(F)cccc2Cl)c2c(sc3c2C[C@@H](C(F)F)C3)-n2c(-c3cccnn3)nnc21
rule not met

This collection of values is drawn from patent US20240190889A1.
